tgt: Protein skinhead-1 (Caenorhabditis elegans)
Sequence (P34707 whole entry): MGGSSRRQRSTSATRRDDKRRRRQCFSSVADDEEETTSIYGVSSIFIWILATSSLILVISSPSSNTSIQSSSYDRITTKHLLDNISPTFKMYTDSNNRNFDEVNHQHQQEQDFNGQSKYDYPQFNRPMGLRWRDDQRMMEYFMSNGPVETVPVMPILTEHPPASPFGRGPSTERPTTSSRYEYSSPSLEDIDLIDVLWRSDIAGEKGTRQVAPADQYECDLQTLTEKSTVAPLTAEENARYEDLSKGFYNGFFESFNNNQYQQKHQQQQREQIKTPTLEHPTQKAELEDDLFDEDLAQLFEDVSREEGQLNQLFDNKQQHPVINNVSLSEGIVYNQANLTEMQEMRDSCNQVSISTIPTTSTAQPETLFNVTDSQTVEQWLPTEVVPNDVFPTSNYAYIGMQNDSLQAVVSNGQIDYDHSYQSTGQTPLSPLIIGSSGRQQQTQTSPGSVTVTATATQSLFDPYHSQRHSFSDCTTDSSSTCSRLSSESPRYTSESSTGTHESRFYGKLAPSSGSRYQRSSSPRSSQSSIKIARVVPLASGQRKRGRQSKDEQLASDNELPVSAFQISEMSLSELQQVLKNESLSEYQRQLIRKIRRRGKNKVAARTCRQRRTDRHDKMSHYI
Assay type: functional
The source made the active and inactive calls.
Outcomes: active, inactive

entry_smiles=Cc1cccc(NC(=O)NCCN2CCCCC2)c1 classification=inactive
entry_smiles=O=C(Nc1nc(-c2cc(F)ccc2F)cs1)c1ccccn1 classification=inactive
entry_smiles=O=C(NCc1ccc(Cl)cc1)c1ccc(-c2ccc(F)c(F)c2)c2ccoc12 classification=inactive
entry_smiles=N#CC(=Cc1cccs1)c1nc(-c2ccc(Cl)cc2)cs1 classification=inactive
entry_smiles=Cc1ccc(-c2nc3cccnc3o2)cc1NC(=O)COc1ccc(C(C)(C)C)cc1 classification=inactive
entry_smiles=O=C(CSc1ncnc2scc(-c3ccc(Cl)cc3)c12)NCc1ccc2c(c1)OCO2 classification=inactive
entry_smiles=O=C(NCCc1ccccn1)c1ccc(S(=O)(=O)N2CCCCCC2)cc1 classification=inactive
entry_smiles=Clc1ccc(-c2nnc(-c3ccco3)o2)cc1 classification=active
entry_smiles=Cc1onc(-c2ccccc2Cl)c1C(=O)NCCn1ccc2ccccc21 classification=inactive
entry_smiles=O=C(Nc1ccc(Cl)cn1)c1cc2c(s1)-c1ccccc1OC2 classification=inactive
entry_smiles=O=C(Nc1ccc(Cl)cn1)c1ccccc1F classification=active
entry_smiles=CSc1ccc(-c2cc(=O)c3ccccc3o2)cc1 classification=active
entry_smiles=Brc1ccc(-c2nnc(-c3cccnc3)o2)cc1 classification=active

* * *

tgt: Endoribonuclease toxin MazF (Escherichia coli K-12)
Sequence (P0AE70 whole entry): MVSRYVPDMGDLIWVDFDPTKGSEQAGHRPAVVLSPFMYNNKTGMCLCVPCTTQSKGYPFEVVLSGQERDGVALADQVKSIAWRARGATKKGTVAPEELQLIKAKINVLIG
test: activation of MazEF endoribonuclease cleavage – biochemical, fluorescence, single-stranded RNA substrate, uHTS hits, dose response (AID 588481)
Type: functional
Activity calls are given as the source filed them.
Outcomes: 1 (yes) = active, 0 (no) = inactive

compound=N#Cc1ccc(N2C(=O)[C@@H]3C(C(=O)c4ccc5ccccc5n4)=NN[C@@H]3C2=O)cc1 classification="1 (yes)"
compound="Oc1cc2c(cc1O)C1c3ccc(O)c(O)c3OCC1(O)C2 (centres undefined)" classification="0 (no)"
compound=CCOC(=O)/C(=N\Nc1ccc(C(C)=O)cc1)c1csc(Nc2ccccc2)n1 classification="0 (no)"
compound=Cc1ccccc1Cn1cccc1/C=C1/C(=N)N2C=CSC2=NC1=O classification="0 (no)"

* * *

tgt: Peroxisome proliferator-activated receptor gamma/Nuclear receptor coactivator 1 (Homo sapiens)
Sequence (P37231 whole entry): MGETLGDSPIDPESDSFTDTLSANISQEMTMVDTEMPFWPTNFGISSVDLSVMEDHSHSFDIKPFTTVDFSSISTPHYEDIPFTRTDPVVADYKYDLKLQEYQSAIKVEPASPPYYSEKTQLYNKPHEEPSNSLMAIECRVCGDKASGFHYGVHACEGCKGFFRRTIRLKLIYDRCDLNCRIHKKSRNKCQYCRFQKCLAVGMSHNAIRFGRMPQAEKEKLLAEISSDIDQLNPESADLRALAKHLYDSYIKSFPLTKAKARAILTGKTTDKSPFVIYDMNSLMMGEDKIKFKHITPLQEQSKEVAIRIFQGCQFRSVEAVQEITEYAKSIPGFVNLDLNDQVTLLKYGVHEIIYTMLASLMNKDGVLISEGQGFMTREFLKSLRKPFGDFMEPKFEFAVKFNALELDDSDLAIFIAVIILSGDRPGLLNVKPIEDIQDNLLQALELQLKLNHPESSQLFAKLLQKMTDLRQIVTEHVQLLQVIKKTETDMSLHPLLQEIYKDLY
Sequence (Q15788 whole entry, further chain): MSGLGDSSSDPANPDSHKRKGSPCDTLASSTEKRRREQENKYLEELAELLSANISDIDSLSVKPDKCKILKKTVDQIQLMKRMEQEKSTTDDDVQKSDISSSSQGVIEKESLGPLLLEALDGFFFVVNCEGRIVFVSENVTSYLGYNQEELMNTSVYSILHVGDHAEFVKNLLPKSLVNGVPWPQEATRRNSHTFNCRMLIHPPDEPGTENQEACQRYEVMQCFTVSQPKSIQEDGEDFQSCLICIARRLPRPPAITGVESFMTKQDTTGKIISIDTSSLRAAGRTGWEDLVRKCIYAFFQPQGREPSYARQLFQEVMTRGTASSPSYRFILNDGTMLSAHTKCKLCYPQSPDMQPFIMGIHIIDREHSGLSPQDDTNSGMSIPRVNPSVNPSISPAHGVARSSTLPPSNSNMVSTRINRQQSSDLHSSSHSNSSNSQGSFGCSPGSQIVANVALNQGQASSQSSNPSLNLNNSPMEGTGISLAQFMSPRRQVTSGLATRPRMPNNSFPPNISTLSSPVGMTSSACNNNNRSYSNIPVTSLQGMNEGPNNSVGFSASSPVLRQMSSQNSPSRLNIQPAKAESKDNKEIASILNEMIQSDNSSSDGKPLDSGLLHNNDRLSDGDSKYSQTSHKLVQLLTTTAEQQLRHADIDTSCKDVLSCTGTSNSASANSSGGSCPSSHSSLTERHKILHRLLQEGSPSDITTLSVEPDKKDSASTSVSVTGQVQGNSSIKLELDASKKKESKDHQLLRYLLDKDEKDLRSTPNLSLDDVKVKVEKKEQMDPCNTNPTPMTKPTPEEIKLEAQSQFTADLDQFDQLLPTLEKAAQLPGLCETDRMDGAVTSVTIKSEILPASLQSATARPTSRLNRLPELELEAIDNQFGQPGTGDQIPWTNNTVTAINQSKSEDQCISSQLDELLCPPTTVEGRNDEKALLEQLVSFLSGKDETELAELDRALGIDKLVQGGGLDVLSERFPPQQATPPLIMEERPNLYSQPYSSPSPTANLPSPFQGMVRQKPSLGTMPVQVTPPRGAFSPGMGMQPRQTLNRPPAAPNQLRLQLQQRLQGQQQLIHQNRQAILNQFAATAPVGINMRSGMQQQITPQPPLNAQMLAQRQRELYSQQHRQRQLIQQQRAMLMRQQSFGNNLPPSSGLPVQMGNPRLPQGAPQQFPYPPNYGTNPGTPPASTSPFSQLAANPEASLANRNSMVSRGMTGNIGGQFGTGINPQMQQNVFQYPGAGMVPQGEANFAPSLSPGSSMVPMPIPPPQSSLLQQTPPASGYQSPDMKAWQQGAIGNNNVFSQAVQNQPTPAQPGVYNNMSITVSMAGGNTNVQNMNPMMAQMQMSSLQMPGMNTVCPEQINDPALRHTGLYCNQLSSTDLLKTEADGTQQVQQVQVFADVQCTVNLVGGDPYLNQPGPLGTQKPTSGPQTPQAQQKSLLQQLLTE
test: TR-FRET dose response biochemical High Throughput Screening assay for agonists of the steroid receptor coactivator 1 (SRC-1) recruitment by the peroxisome proliferator-activated receptor gamma (PPAR gamma): non-selective agonists. [Related pubchem assays (depositor defined):AID1300, AID1808, AID504735, AID631]
Format: protein assay
Calls of active or inactive are those of the source.
Outcomes: active, inactive

molecule=Cc1onc(-c2c(F)cccc2Cl)c1C(=O)Nc1nnc(-c2ccccc2)s1 classification=inactive
molecule=O=C(Nc1nc2c(s1)COc1ccccc1-2)c1cccs1 classification=inactive
molecule="CC(Nc1ccc(Br)cn1)c1cc(Cl)ccc1O (stereo not given)" classification=active
molecule=CCn1c(=O)cc(SCC(=O)N2CCC(C)CC2)c2ccccc21 classification=inactive
molecule=COc1cc(/C=C(\C#N)C(=O)Nc2ccccc2C(=O)O)cc(Cl)c1OC classification=inactive

* * *

Each item that follows carries a reported IC50.
tgt: Genome polyprotein (dengue virus type 2, UniProt P29990)
Sequence (P29990 2492-3391 limits assumed): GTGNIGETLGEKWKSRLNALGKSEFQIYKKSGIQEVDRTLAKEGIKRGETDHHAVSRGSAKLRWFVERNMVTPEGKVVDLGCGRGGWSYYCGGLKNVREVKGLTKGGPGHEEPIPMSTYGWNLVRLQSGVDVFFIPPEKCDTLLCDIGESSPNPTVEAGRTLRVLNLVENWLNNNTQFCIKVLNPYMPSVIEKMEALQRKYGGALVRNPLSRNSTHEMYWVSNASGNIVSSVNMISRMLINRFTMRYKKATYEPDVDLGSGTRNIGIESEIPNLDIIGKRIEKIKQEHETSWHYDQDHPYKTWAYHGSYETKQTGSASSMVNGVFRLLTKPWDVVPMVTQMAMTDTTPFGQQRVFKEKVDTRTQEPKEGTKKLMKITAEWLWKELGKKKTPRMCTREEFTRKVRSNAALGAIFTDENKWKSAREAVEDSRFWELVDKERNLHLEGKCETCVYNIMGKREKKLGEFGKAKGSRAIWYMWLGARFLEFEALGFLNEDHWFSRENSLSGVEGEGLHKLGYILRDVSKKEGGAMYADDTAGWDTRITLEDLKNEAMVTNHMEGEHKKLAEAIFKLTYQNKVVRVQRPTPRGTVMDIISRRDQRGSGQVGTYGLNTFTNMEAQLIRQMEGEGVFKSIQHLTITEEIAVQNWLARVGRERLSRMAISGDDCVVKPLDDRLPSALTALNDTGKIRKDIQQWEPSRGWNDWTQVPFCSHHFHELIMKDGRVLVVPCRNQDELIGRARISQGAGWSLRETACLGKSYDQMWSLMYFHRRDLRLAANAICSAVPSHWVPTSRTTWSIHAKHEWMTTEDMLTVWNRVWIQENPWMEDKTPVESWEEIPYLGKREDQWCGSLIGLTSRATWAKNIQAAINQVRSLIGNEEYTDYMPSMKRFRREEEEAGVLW
test: flavivirus cap methylation enzyme inhibition – biochemical, confirmation dose response, primary screen (AID 588689)
Type: functional
The source made the active and inactive calls.
readout name: IC50

molecule=COc1cc(/C=C(\C#N)C(=O)Nc2ccccc2C(=O)O)cc(Cl)c1OC readout_name=IC50 result="60.6 µM (active)"
molecule=Cc1ccc(-c2csc3nc(SCC(=O)Nc4ccc(Cl)c(C(=O)O)c4)nc(O)c23)cc1 readout_name=IC50 result="37 µM (active)"
molecule="Oc1cc2c(cc1O)C1c3ccc(O)c(O)c3OCC1(O)C2 (stereo not given) [HAEMATOXYLIN]" readout_name=IC50 result="17.4 µM (active)"
molecule=Cc1ccc(S(=O)(=O)Nc2nc(-c3ccc(F)cc3)cs2)cc1 readout_name=IC50 result="70.6 µM (active)"
molecule=Cc1cc(O)c(-c2cc(O)c(C)cc2O)cc1O readout_name=IC50 result="39.8 µM (active)"
